In this section, each of the compounds is paired with its reported TGI.
System: UACC-62 melanoma
protocol: NCI tumour cell line growth inhibition, 48 h

Past entries and their recorded results:
C[C@@]12[Se]c3ccccc3[C@]1(C)[Se]c1ccccc12 | 7.18 µM
COC(=O)c1ccc(N/C=C(/C#N)c2ccsc2)cc1 | 60.5 µM
Clc1ccc(C2=Cc3nc2c(-c2ccccc2)c2ccc([nH]2)c(-c2ccccc2)c2nc(c(-c4ccccc4)c4ccc([nH]4)c3-c3ccccc3)C=C2)cc1 | > 62.5 µM
CC1(C)CC(C(=O)OCCCCCCCCCCC[P+](c2ccccc2)(c2ccccc2)c2ccccc2)C(C)(C)N1O (stereo not given) | 1.24 µM
CC12OC(C(=O)C13CCC3)C1C(=O)c3c(O)ccc(O)c3C(=O)C12 (stereo not given) | > 36.6 µM

Dear colleague, please send me the reported TGI for CCOC(=O)COc1cc(-c2ccccc2)nc2cc(F)ccc12 when you can.
> 100 µM

Dear colleague, please send me the reported TGI for Cc1c2ccccc2cc2cccc[n+]12 when you can.
> 100 µM

Dear colleague, please send me the reported TGI for Cc1ccc([N+](=O)[O-])cc1NC(=O)/C(CC(=O)c1sc(C(N)=S)nc1C)=N\N when you can.
> 100 µM

Dear colleague, please send me the reported TGI for O=C1/C(=C/c2ccc([N+](=O)[O-])cc2)Sc2scc(-c3cccc([N+](=O)[O-])c3)[n+]21 when you can.
29.9 µM

Dear colleague, please send me the reported TGI for COc1ccccc1C(=O)Nc1ccc(Cl)c(C(=O)OC(C)C)c1 when you can.
> 63.4 µM

Dear colleague, please send me the reported TGI for NC(N)=N/N=C/c1c(-c2cccs2)nc2n1CCS2 when you can.
26.4 µM

Dear colleague, please send me the reported TGI for COc1cc(CO)cc2c1[nH]c1ccccc12 when you can.
> 25 µM

Dear colleague, please send me the reported TGI for NC(=S)N/N=C1/C(=O)N(c2ccccc2)C(=O)C1C(=O)Nc1ccccc1 (stereo not given) when you can.
> 100 µM
